Data origin: patent US8748626B2

Give IC50 for every item shown.
Test System: motor domain of human KSP (Eg 5, KNSL1) (Homo sapiens (Human))
Sequence (P52732 18-359): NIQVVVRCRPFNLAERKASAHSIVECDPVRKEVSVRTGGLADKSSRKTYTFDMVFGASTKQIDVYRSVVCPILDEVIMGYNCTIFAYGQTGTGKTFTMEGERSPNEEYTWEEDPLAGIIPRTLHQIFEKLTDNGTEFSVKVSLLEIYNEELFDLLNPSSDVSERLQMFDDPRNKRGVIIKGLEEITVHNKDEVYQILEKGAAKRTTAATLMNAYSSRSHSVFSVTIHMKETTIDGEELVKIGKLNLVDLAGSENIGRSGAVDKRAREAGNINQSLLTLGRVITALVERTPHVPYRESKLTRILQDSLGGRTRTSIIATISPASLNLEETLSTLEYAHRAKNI
Protocol Summary: Assay for determining KSP activity (microtubule-stimulated ATPase, Biomol Green)
Type: biochemical
Experimental Conditions: KSP motor domain 45 nM, microtubules 35 μg/mL, ATP, 1 hour RT, absorbance 630 nm; read-out: Biological Activity IC50

// sample C[C@H](O)C(=O)N(C[C@@H]1CNC[C@@H]1F)[C@@H](c1nc(-c2cc(F)ccc2F)sc1Cc1ccccc1)C(C)(C)C [Example 1] , its IC50 was 0.84 nM

Noted for CC(C)(C)[C@H](c1nc(-c2cc(F)ccc2F)sc1Cc1ccccc1)N(C[C@@H]1CNC[C@@H]1F)C(=O)[C@@H]1CCCO1 [Example 2] : its IC50 reads 10 nM

Entry under test: C[C@H](O)C(=O)N(C[C@@H]1CNC[C@@H]1F)[C@@H](c1nc(-c2cc(F)ccc2F)oc1Cc1ccccc1)C(C)(C)C [Example 4] . Its IC50 was 7.18 nM

###

System: tumor cell lines
Protocol Summary: Inhibition of cellular proliferation in tumor cell lines (CellTiter-Glo)
Type: cell-based
Experimental Conditions: 50% growth inhibition at 72 hours of continuous compound exposure; cell line not specified; read-out: Biological Activity GI50
Quick rule for you: GI50 under 2 nM gets Fulfilled, anything else gets Not fulfilled.

Data request: Hello, I'm reviewing records and need to know if GI50 of "CC(C)(C)[C@H](c1nc(-c2cc(F)ccc2F)sc1Cc1ccccc1)N(C[C@@H]1CNC[C@@H]1F)C(=O)[C@@H]1CCCO1" is below 2 nM. Could you check?
Data returned: Fulfilled

Data request: Please check: GI50 for "C[C@H](O)C(=O)N(C[C@@H]1CNC[C@@H]1F)[C@@H](c1nc(-c2cc(F)ccc2F)oc1Cc1ccccc1)C(C)(C)C" , strictly under 2 nM or not?
Data returned: Not fulfilled

Data request: Quick check: does "C[C@H](O)C(=O)N(C[C@@H]1CNC[C@@H]1F)[C@@H](c1nc(-c2cc(F)ccc2F)sc1Cc1ccccc1)C(C)(C)C" have GI50 under 2 nM?
Data returned: Fulfilled

Data request: For this compound, is GI50 lower than 2 nM? "C[C@H](O)C(=O)N(CC[C@H](N)CF)[C@H](c1nc(-c2cc(F)ccc2F)sc1Cc1ccccc1)C(C)(C)C"
Data returned: Not fulfilled

Data request: GI50 strictly < 2 nM for this compound? "C[C@H](O)C(=O)N(CC[C@H](N)CF)[C@@H](c1nc(-c2cc(F)ccc2F)oc1Cc1ccccc1)C(C)(C)C"
Data returned: Not fulfilled

Data request: Regarding "C[C@H](O)C(=O)N(CC[C@H](N)CF)[C@@H](c1nc(-c2cc(F)ccc2F)sc1Cc1ccccc1)C(C)(C)C" , kindly confirm whether its GI50 is beneath 2 nM.
Data returned: Not fulfilled
